Values were extracted from paper PMC4245986.

Catalogue of binders with associated Kd
Molecular target: T1, GST-SH3 domain (derived from BIN1) (human)
T1 sequence (O00499 whole entry, looked up): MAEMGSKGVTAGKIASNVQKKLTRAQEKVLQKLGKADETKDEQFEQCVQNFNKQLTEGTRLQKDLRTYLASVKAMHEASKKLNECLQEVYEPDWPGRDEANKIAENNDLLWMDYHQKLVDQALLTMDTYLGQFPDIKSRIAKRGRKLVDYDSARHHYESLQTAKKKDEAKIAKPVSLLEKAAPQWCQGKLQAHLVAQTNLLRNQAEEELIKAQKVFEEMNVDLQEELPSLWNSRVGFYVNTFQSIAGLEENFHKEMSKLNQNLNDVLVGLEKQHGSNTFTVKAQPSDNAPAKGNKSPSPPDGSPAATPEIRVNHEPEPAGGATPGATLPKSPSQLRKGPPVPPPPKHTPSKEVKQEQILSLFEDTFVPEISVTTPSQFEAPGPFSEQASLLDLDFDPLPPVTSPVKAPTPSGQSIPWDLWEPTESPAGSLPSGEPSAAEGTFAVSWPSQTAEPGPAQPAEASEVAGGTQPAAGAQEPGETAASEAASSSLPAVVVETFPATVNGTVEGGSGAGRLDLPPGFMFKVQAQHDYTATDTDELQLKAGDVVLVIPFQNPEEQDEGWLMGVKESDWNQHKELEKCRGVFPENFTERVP
Experiment: ITC
Number only, in µM; omit the unit.

- BINDER: "PPQIPSRPVRIPPGI [dynamin 2-derived proline-rich domain peptide]"
  READOUT KIND: "Kd"
  TEST VALUE: 13.7

--- query ---
Reported Kd for RKKSKLFSRLRRKKN [exon10 peptide] was 3.9
